As shown below, each of these binders has a reported pKi value.
Target Of Assay: rat neuropeptide FF receptor (NPFF1) (rat, UniProt Q9EP86 1-432)
Sequence (Q9EP86 whole entry): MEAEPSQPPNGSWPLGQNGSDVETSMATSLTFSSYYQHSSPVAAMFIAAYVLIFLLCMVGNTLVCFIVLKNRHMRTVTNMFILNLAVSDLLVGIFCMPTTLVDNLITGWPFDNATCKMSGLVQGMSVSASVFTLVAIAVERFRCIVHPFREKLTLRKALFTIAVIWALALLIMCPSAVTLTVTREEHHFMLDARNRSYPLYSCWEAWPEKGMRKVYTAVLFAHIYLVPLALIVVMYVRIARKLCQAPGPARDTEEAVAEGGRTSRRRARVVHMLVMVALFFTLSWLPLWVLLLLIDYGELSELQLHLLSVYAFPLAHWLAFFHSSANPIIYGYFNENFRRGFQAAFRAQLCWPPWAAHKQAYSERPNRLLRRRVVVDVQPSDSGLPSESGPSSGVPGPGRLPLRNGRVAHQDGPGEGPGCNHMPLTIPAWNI
Assay Text: competition with [125I]D-Tyr-NPFF, HEK-293 cells with the cloned receptor
Non-standard residues stand in square brackets, D forms with d. No end group written: not given here. NMeF = CN[C@@H](Cc1ccccc1)C(=O)O
Reply with the value as a number alone.

Binder	pKi
APSEPHHPGDQATQDQLAQYYSDLYQYITFVTRPRF (not fully specified; ends and bridges not checked, also called fPP) [Frog pancreatic polypeptide (frog PP) (Rana Temporaria)]	5.4
PQRF-NH2 (C-terminal tetrapeptide of NPFF; also called PGRF-amide [sic]) [PQRF-amide]	7.6
AGEGLSSPFWSLAAPQRF-NH2 (also called NPAF) [rat A-18-F-amide]	7.5
[dY]L[NMeF]QPQRF-NH2 (N-terminus assumed; SMILES CC(C)C[C@H](NC(=O)[C@H](N)Cc1ccc(O)cc1)C(=O)N(C)[C@@H](Cc1ccccc1)C(=O)N[C@@H](CCC(N)=O)C(=O)N1CCC[C@H]1C(=O)N[C@@H](CCC(N)=O)C(=O)N[C@@H](CCCNC(=N)N)C(=O)N[C@@H](Cc1ccccc1)C(N)=O, also called D-Tyr-NPFF; (1DMe)Y8Fa) [(D-Tyr^1-(NMe)Phe^3)NPFF]	8.8
FMRF-NH2 [FMRF amide]	8.7

Now for the binder whose pKi we want.
Exercise: Requested field: pKi. Item: FMRF (D-Met in place of L-Met, C-terminal amide, also called the D-Met analog) [D-Met-FMRF amide]
Key: 6.2
